- System: S. aureus ATCC 29213
- ASSAY NOTES: In vitro antibacterial activity
- Assay type: cell-based
- MEASUREMENT CONTEXT: Staphylococcus aureus, ATCC29213; S. aureus ATCC 29213; read-out: MIC90
I'd appreciate it if you could supply MIC90 values for the items below.
Answers are plain numbers, in µg/mL.

In [3]: df
Out[3]:
                            smiles_notation  recorded_value
0  COc1ccc(Nc2nc3ccc([N+](=O)[O-])cc3nc2Nc2ccc(OC)c(C(F)(F)F)c2)cc1C(F)(F)F            62.5

Now let's try a different one.
### Prompt Reported MIC90, compound `O=[N+]([O-])c1ccc2nc(Nc3ccc(C(F)(F)F)cc3)c(Nc3ccc(C(F)(F)F)cc3)nc2c1` : ____
### Response 0.98

* * *

I'd appreciate it if you could supply AUC(0-t) values for the items below.
- ASSAY NOTES: Mouse pharmacokinetics, oral cassette dosing
- MEASUREMENT CONTEXT: male, C57/BL6, mouse, plasma, po, 2.5 mg/kg
One number for each entry, in ng·h/mL.

In [3]: df
Out[3]:
                            smiles_notation  recorded_value
0  O=[N+]([O-])c1ccc2nc(Nc3ccc(F)c(C(F)(F)F)c3)c(Nc3ccc(F)c(C(F)(F)F)c3)nc2c1            89.6
1  O=[N+]([O-])c1ccc2nc(Nc3cc(C(F)(F)F)ccc3F)c(Nc3cc(C(F)(F)F)ccc3F)nc2c1             337
2  O=[N+]([O-])c1ccc2nc(Nc3ccc(C(F)(F)F)cc3)c(Nc3ccc(C(F)(F)F)cc3)nc2c1             419

Return reported AUC(0-t) values for all items listed beneath this line.
1. O=[N+]([O-])c1ccc2nc(Nc3ccc(Cl)cc3)c(Nc3ccc(Cl)cc3)nc2c1
2. CCCCCC(=O)Nc1ccc2nc(Nc3ccc(Cl)c(Cl)c3)c(Nc3ccc(Cl)c(Cl)c3)nc2c1

### Response
1. 436
2. 68.2

### Prompt Reported AUC(0-t), molecule `COc1ccc(Nc2nc3ccc([N+](=O)[O-])cc3nc2Nc2ccc(OC)c(C(F)(F)F)c2)cc1C(F)(F)F` : ____
### Response 77.8

* * *

- Test system: Staphylococcus aureus ATCC 700698
- ASSAY NOTES: Antibacterial MIC (ISO 20776-1)
- Type: cell-based
- MEASUREMENT CONTEXT: ATCC700698; Staphylococcus aureus ATCC 700698, Vancomycin resistance, hVISA; read-out: MIC
I'd appreciate it if you could supply MIC values for the items below.
Answers are plain numbers, in µg/mL.

// below: answered compounds
                            smiles_notation                      tested_target  unit_label  recorded_value
0  O=[N+]([O-])c1ccc2nc(Nc3ccc(F)c(C(F)(F)F)c3)c(Nc3ccc(F)c(C(F)(F)F)c3)nc2c1  Staphylococcus aureus ATCC 700698       µg/mL             0.5
1  O=C(Nc1ccc2nc(Nc3ccc(Cl)c(Cl)c3)c(Nc3ccc(Cl)c(Cl)c3)nc2c1)c1ccco1  Staphylococcus aureus ATCC 700698       µg/mL               8

Return reported MIC values for all items listed beneath this line.
1. COc1ccc(Nc2nc3ccc([N+](=O)[O-])cc3nc2Nc2ccc(OC)c(C(F)(F)F)c2)cc1C(F)(F)F
2. O=[N+]([O-])c1ccc2nc(Nc3ccc(C(F)(F)F)cc3)c(Nc3ccc(C(F)(F)F)cc3)nc2c1

### Response
1. 1
2. 0.125

* * *

What follows is a record of MIC90 for MRSA EM RSA.
Give bare numbers, in µg/mL.

                                   compound  endpoint_label  recorded_value
0  O=C(Nc1ccc2nc(Nc3ccc(Cl)c(Cl)c3)c(Nc3ccc(Cl)c(Cl)c3)nc2c1)c1ccco1 [Compound 19]           MIC90            62.5
1  O=[N+]([O-])c1ccc2nc(Nc3ccc(F)c(C(F)(F)F)c3)c(Nc3ccc(F)c(C(F)(F)F)c3)nc2c1 [Compound 7]           MIC90            7.81

Now let's try a different one.
### Prompt Reported MIC90, compound O=[N+]([O-])c1ccc2nc(Nc3ccc(C(F)(F)F)cc3)c(Nc3ccc(C(F)(F)F)cc3)nc2c1 [Compound 11] : ____
### Response 3.91

* * *

I'd appreciate it if you could supply Tmax values for the items below.
- ASSAY NOTES: Mouse pharmacokinetics, oral cassette dosing
- MEASUREMENT CONTEXT: male, C57/BL6, mouse, plasma, po, 2.5 mg/kg
Answers are plain numbers, in h.

>>> print(df.to_string())
                            smiles_notation  unit_label  recorded_value
0  COc1ccc(Nc2nc3ccc([N+](=O)[O-])cc3nc2Nc2ccc(OC)c(C(F)(F)F)c2)cc1C(F)(F)F           h               4
1  O=[N+]([O-])c1ccc2nc(Nc3ccc(C(F)(F)F)cc3)c(Nc3ccc(C(F)(F)F)cc3)nc2c1           h               4
2  O=[N+]([O-])c1ccc2nc(Nc3ccc(Cl)cc3)c(Nc3ccc(Cl)cc3)nc2c1           h            3.33
3  CCCCCC(=O)Nc1ccc2nc(Nc3ccc(Cl)c(Cl)c3)c(Nc3ccc(Cl)c(Cl)c3)nc2c1           h               4

Return reported Tmax values for all items listed beneath this line.
1. O=[N+]([O-])c1ccc2nc(Nc3cc(C(F)(F)F)ccc3F)c(Nc3cc(C(F)(F)F)ccc3F)nc2c1
2. O=[N+]([O-])c1ccc2nc(Nc3ccc(F)c(C(F)(F)F)c3)c(Nc3ccc(F)c(C(F)(F)F)c3)nc2c1

### Response
1. 4
2. 4

* * *

I'd appreciate it if you could supply half-life at 1 μM values for the items below.
- ASSAY NOTES: Metabolic stability in mouse liver microsomes
- MEASUREMENT CONTEXT: microsomes
Answers are plain numbers, in h.

>>> print(df.to_string())
                            smiles_notation  unit_label  recorded_value
0  O=[N+]([O-])c1ccc2nc(Nc3ccc(C(F)(F)F)cc3)c(Nc3ccc(C(F)(F)F)cc3)nc2c1           h             172

### Prompt Reported half-life at 1 μM, molecule `COc1ccc(Nc2nc3ccc([N+](=O)[O-])cc3nc2Nc2ccc(OC)c(C(F)(F)F)c2)cc1C(F)(F)F` : ____
### Response 2.13

* * *

- ASSAY NOTES: Mouse pharmacokinetics, oral cassette dosing
- MEASUREMENT CONTEXT: male, C57/BL6, mouse, plasma, po, 2.5 mg/kg
- Method: Non-compartmental mouse pharmacokinetics (Male C57/BL6 Mouse, Fasted; 3 mice per group) were determined after oral administration of a nominal dose of 2.5 mg/kg of these formulations in cassettes (5 compounds/group) according to the protocols employed by WuXi (https://www.wuxiapptec.com; the CRO that conducted these studies).
ENDPOINT LABEL: AUC(0-inf) (ng·h/mL)
One number for each entry, in ng·h/mL.

### Prompt Reported AUC(0-inf), compound O=[N+]([O-])c1ccc2nc(Nc3ccc(C(F)(F)F)cc3)c(Nc3ccc(C(F)(F)F)cc3)nc2c1 [Compound 11] : ____
### Response 444

* * *

- System: Haemophilus influenzae 17428
- ASSAY NOTES: Antibacterial MIC (ISO 20776-1)
- Assay type: cell-based
- MEASUREMENT CONTEXT: Haemophilus influenzae 17428, Ampicillin resistance, PBP
I'd appreciate it if you could supply MIC values for the items below.
One number for each entry, in µg/mL.

// below: answered compounds
In [3]: df
Out[3]:
                                   compound  recorded_value
0  O=C(Nc1ccc2nc(Nc3ccc(Cl)c(Cl)c3)c(Nc3ccc(Cl)c(Cl)c3)nc2c1)c1ccco1 [Compound 19]              64
1  O=[N+]([O-])c1ccc2nc(Nc3cccc(Cl)c3)c(Nc3cccc(Cl)c3)nc2c1 [Compound 5]               8

Now let's try a different one.
### Prompt Reported MIC, compound O=[N+]([O-])c1ccc2nc(Nc3ccc(C(F)(F)F)cc3)c(Nc3ccc(C(F)(F)F)cc3)nc2c1 [Compound 11] : ____
### Response 16

* * *

What follows is a record of MIC90 for MRSA EM RSA.
Give bare numbers, in µg/mL.

Return reported MIC90 values for all items listed beneath this line.
1. Clc1ccc(Nc2nc3ccc(N4CCCC4)cc3nc2Nc2ccc(Cl)c(Cl)c2)cc1Cl
2. O=[N+]([O-])c1ccc2nc(Nc3cccc(Cl)c3)c(Nc3cccc(Cl)c3)nc2c1
3. COc1ccc(Nc2nc3ccc([N+](=O)[O-])cc3nc2Nc2ccc(OC)c(C(F)(F)F)c2)cc1C(F)(F)F

### Response
1: 62.5; 2: 3.91; 3: 31.2

Just for reference, patent US12503448B2 is where these values come from.
